Target: T1, FLAG-tagged mouse Ang2 (mouse, UniProt O35608 19-496)
T1 construct: N-terminally FLAG-tagged, conditioned medium of HEK293T cells; also called mAng2; FLAG-mAng2
T1 sequence: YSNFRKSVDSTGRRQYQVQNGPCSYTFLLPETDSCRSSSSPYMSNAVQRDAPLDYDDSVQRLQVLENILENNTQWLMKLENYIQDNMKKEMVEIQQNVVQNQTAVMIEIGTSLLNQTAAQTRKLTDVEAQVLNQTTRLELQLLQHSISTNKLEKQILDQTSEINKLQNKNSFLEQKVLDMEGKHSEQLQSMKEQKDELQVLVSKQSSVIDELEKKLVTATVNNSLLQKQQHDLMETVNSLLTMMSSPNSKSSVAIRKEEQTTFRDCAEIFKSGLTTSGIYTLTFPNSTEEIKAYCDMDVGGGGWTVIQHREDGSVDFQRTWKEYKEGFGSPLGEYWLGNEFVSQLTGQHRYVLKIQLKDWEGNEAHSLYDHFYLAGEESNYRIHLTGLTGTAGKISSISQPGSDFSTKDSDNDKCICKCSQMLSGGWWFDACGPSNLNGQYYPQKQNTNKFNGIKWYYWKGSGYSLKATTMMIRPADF
Test: competition ELISA: FLAG-mAng2 binding to coated mTie2-Fc
Assay Metric: pIC50
Lab note: report pIC50 as minus log10 of the concentration in molar units, number only.

Use these answered entries as a reference point.
Binder: VHH 00027 (VHH, not shown: small tags and cut ends, Variant of 28D10 carrying C50S/S53N and Q108L) VHH: EVQLVESGGGLVQAGGSLRLSCAASGFTLDDYAIGWFRQAPGKEREGVSSIRDNDGSTYYADSVKGRFTISSDNDKNTVYLQMNSLKPEDTAVYYCAAVPAGRLRFGEQWYPLYEYDAWGQGTLVTVSS
pIC50: 8.70
--
Binder: VHH 00932 (VHH, not shown: small tags and cut ends, Cycle 3 variant of 28D10 on the 00908 backbone) VHH: EVQLVESGGGLVQPGGSLRLSCAVSGITLDDYAIGWFRQAPGKEREGVSSIRDNGGSTYYADSVKGRFTISSDNSKNTVYLQMNSLRPEDTAVYYCAAVPAGRLRYGEQWYPIYEYDAWGQGTLVTVSS
pIC50: 10.42
--
Binder: VHH 00933 (VHH, not shown: small tags and cut ends, Cycle 3 variant of 28D10 on the 00908 backbone) VHH: EVQLVESGGGLVQPGGSLRLSCAASGITLDDYAIGWFRQAPGKEREGVSAIRDNGGSTYYADSVKGRFTISSDNSKNTVYLQMNSLRPEDTAVYYCAAVPAGRLRYGEQWYPIYEYDAWGQGTLVTVSS
pIC50: 10.21

# input # query: pIC50 of entry VHH 00938 (VHH, not shown: small tags and cut ends, Cycle 3 variant of 28D10 on the 00908 backbone) VHH: EVQLVESGGGLVQPGGSLRLSCAVSGITLDDYAIGWFRQAPGKEREGVSAIRSSGGSTYYADSVKGRFTISSDNSKNTVYLQMNSLRPEDTAVYYCAAVPAGRLRYGEQWYPIYEYDAWGQGTLVTVSS
# output 10.26

Origin of values: patent US20230203146A1
